Target: S. aureus GyrB ATPase (Staphylococcus aureus)
Sequence (P0A0K8 whole entry): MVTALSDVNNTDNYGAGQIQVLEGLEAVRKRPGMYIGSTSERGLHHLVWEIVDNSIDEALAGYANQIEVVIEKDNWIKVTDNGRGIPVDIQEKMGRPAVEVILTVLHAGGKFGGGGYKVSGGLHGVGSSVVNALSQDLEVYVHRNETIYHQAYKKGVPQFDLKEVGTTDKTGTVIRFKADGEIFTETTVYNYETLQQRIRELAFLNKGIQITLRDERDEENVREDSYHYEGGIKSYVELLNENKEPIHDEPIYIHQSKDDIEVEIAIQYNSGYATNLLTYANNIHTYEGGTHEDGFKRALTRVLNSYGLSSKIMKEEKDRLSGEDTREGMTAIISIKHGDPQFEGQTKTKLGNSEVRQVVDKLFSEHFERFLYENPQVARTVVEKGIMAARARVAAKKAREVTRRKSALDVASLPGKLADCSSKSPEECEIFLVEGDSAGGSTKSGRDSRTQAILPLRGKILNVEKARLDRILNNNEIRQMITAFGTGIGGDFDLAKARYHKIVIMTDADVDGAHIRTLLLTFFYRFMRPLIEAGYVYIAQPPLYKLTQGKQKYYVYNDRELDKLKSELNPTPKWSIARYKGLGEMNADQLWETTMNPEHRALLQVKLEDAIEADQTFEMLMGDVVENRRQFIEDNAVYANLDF
Sequence (P0AES4 whole entry, further chain): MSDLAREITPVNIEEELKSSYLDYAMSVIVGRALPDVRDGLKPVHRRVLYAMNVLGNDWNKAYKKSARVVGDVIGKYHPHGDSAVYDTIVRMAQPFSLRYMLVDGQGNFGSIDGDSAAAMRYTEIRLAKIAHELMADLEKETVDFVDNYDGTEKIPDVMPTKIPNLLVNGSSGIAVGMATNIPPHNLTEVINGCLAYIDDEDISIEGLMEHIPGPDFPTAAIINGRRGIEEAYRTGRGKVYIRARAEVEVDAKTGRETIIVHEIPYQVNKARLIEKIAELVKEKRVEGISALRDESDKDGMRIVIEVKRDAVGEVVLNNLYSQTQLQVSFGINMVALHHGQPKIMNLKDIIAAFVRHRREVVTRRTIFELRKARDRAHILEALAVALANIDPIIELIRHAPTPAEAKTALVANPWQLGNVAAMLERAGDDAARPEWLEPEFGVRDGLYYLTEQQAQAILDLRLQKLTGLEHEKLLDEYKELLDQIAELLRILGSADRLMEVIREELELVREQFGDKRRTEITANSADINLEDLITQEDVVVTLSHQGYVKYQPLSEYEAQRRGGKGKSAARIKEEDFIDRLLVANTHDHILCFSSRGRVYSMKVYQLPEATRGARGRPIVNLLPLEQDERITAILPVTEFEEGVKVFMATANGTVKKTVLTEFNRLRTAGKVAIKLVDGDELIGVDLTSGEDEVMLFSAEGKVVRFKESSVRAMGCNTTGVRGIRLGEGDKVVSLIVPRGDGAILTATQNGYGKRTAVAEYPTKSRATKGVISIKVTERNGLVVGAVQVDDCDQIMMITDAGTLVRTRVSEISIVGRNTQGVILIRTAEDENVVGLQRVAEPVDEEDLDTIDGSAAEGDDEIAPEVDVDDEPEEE
Assay: biochemical
Settings: compound at 1 μM; one value per test if tested more than once; read-out: % Inhibition of S. aureus GyrB ATPase
For each of the compounds below, state its inhibition at 1 µM.
Give just the numeric value; % need not be written.

Problem: // query inhibition at 1 µM value for entry CC(C)NC(=O)Nc1cc(-c2nc(C(F)(F)F)cs2)c(-c2ccc3c(c2)c(=O)c(C(=O)NCCN(C)C)cn3CCN2CCN(C)CC2)cn1 [Example 227]
Solution: 91

Problem: Look up inhibition at 1 µM: CCNC(=O)Nc1cc(-c2nc(C(F)(F)F)cs2)c(-c2ccc3c(=O)c(C(=O)NCCO)cn(CC)c3c2)cn1 [Example 330]
Solution: 109

Problem: Tell me the measured inhibition at 1 µM of CCNC(=O)Nc1cc(-c2nc(C(F)(F)F)cs2)c(-c2ccc3c(c2)c(=O)c(C(=O)O)cn3[C@H]2CCCN(CCN3CCOCC3)C2)cn1 [Example 284] , please.
Solution: 107

Problem: Could you tell me which inhibition at 1 µM is on file for CCNC(=O)Nc1cc(-c2nc(C(F)(F)F)cs2)c(-c2ccc3c(=O)c(C(=O)NCCN4CCOCC4)cn(Cc4cccnc4)c3c2)cn1 [Example 361] ?
Solution: 97

Problem: What does the record list as inhibition at 1 µM for CCNC(=O)Nc1cc(-c2nc(C(F)(F)F)cs2)c(-c2ccc3c(=O)c(C(=O)NCCO)cn(Cc4ccccc4)c3c2)cn1 [Example 354] ?
Solution: 98

Problem: Which inhibition at 1 µM value is on record for CCNC(=O)Nc1cc(-c2nc(C(F)(F)F)cs2)c(-c2ccc3c(c2)c(=O)c(C(=O)O)cn3[C@H]2CCCN(Cc3cccn3C)C2)cn1 [Example 283] ?
Solution: 102
